- SYSTEM TESTED: Mu-type opioid receptor (Rattus norvegicus)
- Sequence (P33535 whole entry): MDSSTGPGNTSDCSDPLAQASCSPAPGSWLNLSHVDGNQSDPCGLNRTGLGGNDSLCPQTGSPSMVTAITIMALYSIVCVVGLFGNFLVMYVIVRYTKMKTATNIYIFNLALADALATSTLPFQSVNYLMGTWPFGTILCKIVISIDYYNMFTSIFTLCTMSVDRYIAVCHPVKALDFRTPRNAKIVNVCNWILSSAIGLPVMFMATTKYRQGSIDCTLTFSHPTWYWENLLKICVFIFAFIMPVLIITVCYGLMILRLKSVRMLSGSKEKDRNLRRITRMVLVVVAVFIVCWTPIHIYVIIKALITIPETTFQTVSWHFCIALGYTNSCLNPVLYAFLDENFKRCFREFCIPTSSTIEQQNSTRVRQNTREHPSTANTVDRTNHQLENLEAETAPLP
- EXPERIMENT SUMMARY: Inhibitory concentration was evaluated against mu opioid receptor by the displacement of tritiated DAMGO from rat brain membranes
- Format: cell membranes, Membrane
PARAMETER MEASURED: pIC50
The value called pIC50 is obtained by taking minus log10 of the concentration in mol/L.

Task item: Note down pIC50 recorded for COc1cc(C)c(C[C@H](N)C(=O)N[C@H](C)C(=O)NCCCc2ccccc2)c(C)c1 (stereo in doubt; 20b)
Reply: 7.49

Task item: Note down pIC50 recorded for Cc1cc(OCc2ccc(F)cc2)cc(C)c1CC(N)C(=O)N[C@H](C)C(=O)NCCCc1ccccc1 (stereo partly drawn)
Reply: 8.06

Task item: Note down pIC50 recorded for "Cc1cc(OCc2ccccc2)cc(C)c1C[C@@H](N)C(=O)N[C@H](C)C(=O)NCCCc1ccccc1"
Reply: 7.35
